System: NCI-H226 lung
experiment: NCI-60 one-dose screen, 48 h (100 = growth as untreated, 0 = no growth, -100 = all killed)
conditionInfo: 10 µM unless noted
About 83,000 compounds went through this panel and 20% of them were active in at least one assay; those are over-represented in the sample as a whole.
compounds and their reported growth
The figure you give is taken to be in %; do not add the unit.

Cn1cc(-c2csc(-c3cn(CCN)c4ccc(Br)cc34)n2)c2cccnc21 : 85.1
Cc1ccc(NC2CC(=O)N(c3c(C)cc(C)cc3C)C2=O)c(C)c1 (stereo not given) : 109
CCCCC(=O)OC1CCCCC1C (stereo not given) : 79.1

Proceed to the following item.
For the record S=c1[nH]nc2ccccn12 , what value of growth is listed for NCI-H226 lung?
122

----------
Test system: T-47D breast
experiment: NCI-60 one-dose screen, 48 h
conditionInfo: 10 µM unless noted
The panel holds about 83,000 compounds, 20% with a hit somewhere; the sample as a whole holds those more often. Active and inactive are the calls of the source. Rule for the calls: active = growth percent below 10; inactive = the rest.
Choose the fitting class; nothing outside active, inactive is accepted.

Cc1ccc(N(CC(=O)Nc2ccc(S(=O)(=O)N3CCC(N4CCCC4)CC3)cc2)S(=O)(=O)c2ccc(Cl)cc2)cc1 : active
CC(=O)Nc1cc(F)cc(C(F)(F)F)c1Cl : inactive
O=P(O)(c1ccccc1)c1ccccc1I : inactive
COc1cccc(NC(=O)c2sc3nc4c(cc3c2N)C(=O)CCC4)c1 : inactive

Then there is this molecule:
Field: outcome | Entry: Cc1ccc(NC2CC(=O)N(c3c(C)cc(C)cc3C)C2=O)c(C)c1 (stereo not given)
inactive

----------
Test system: TK-10 renal
experiment: NCI-60 one-dose screen, 48 h
conditionInfo: 10 µM unless noted
About 83,000 compounds went through this panel and 20% of them were active in at least one assay; those are over-represented in the sample as a whole. Activity calls are given as the source filed them. The calls were made as follows: active = growth percent below 10; inactive = the rest.
Tick one outcome: yes (1) for active, no (0) for inactive

Answered examples (4):
O=c1[nH]c2c3ccncc3cc(-c3cccc(Cl)c3)c2c2cnccc12 : yes (1)
COc1cc2c3c(c4c5ccccc5[nH]c4c2c(OC)c1OC)C(=O)N(O)C3=O : no (0)
COc1cccc(-c2nn(-c3ccccc3)cc2-c2ccnc(NCCNS(=O)(=O)c3ccc(Cl)cc3)c2)c1 : no (0)
O=C1CCN2C(=O)Nc3ccccc3C2C1 (centres undefined) : no (0)

Dear colleague, could you share the recorded outcome for Cc1ccc(N(CC(=O)Nc2ccc(S(=O)(=O)N3CCC(N4CCCC4)CC3)cc2)S(=O)(=O)c2ccc(Cl)cc2)cc1 when you have a moment?
no (0)

What call does the record list for CC1(c2ccccc2)OC1C(=O)O (centres undefined) ?
no (0)

# fetch the recorded call for CC(=O)c1c(C)[nH]c(-c2nc3ccc(N4CCN(C)CC4)cc3[nH]2)c1-c1ccc2c(c1)OCCO2 here
yes (1)

Recorded test outcome, item C[C@@H](Oc1ccc(C(=O)NS(=O)(=O)C(C)(C)C)cc1C(F)(F)F)c1ccc(Oc2ccccc2)cn1
no (0)

Field: outcome | Entry: Cc1cc(N2CCOCC2)nc(N(CCCNc2ccnc3cc(Cl)ccc23)Cc2ccco2)n1
no (0)

----------
Test system: HS 578T breast
experiment: NCI-60 one-dose screen, 48 h (100 = growth as untreated, 0 = no growth, -100 = all killed)
conditionInfo: 10 µM unless noted
The panel holds about 83,000 compounds, 20% with a hit somewhere; the sample as a whole holds those more often.
measuredProperty: growth (%)
Form entry: value (%) — number only.

# count of solved cases: 6
C=C(C)[C@@H]1CC[C@]2(C)CC[C@]3(C)[C@H](CC[C@@H]4[C@@]5(C)CCCNC(C)(C)[C@@H]5CC[C@]43C)[C@@H]12 : 101
Nc1nc2c(c(=O)[nH]1)C(c1ccc3c(c1)OCO3)C=C(C(=O)O)N2 (configuration not stated) : 106
CC(=O)c1c(C)[nH]c(-c2nc3ccc(N4CCN(C)CC4)cc3[nH]2)c1-c1ccc(N(C)C)cc1 : 21.1
CN1CCN(CCOc2ccc(-c3cnc4c(-c5ccccc5F)cnn4c3)cc2)CC1 : 76.9
CCOC(=O)C1OC1(c1ccccc1)c1ccccc1 (configuration not stated) : 114
C=C(C)[C@@H]1CC[C@]2(CN)CC[C@]3(C)[C@H](CC[C@@H]4[C@@](C)(CCCN)[C@H](C(=C)C)CC[C@]43C)[C@@H]12 : 89.4

// below: growth requested for another compound
growth lookup needed for N#CC1=C(N)Oc2c(sc3c(F)cccc23)C1c1ccc(Cl)cc1 (configuration not stated) , thanks.
40.6

----------
Test system: OVCAR-8 ovarian
experiment: NCI-60 one-dose screen, 48 h (100 = growth as untreated, 0 = no growth, -100 = all killed)
conditionInfo: 10 µM unless noted
The panel holds about 83,000 compounds, 20% with a hit somewhere; the sample as a whole holds those more often.
measuredProperty: growth (%)
// return numeric value only (unit: %, not printed)

Cc1nn(-c2ccc(Cl)cc2)c(=O)n1CCn1cnc2ccccc21 : 112
COc1ccc(-c2n[nH]nc2-c2cc3ccccc3s2)cc1O : 27.7
Cn1c2c(c3ccc(Cl)cc31)-n1cccc1C2=O : 83.5
COc1ccc(C(=O)c2ccc(C)cc2)c(OC)c1OC : 90.4
NCCNc1nc(-c2ccccc2)nc2nc(-c3ccccc3)oc12 : 97.7

Any idea what its growth is? The compound is COC1=C(Br)C(=O)C(OC)=C(Br)C1=O
105

Name the reported growth value associated with the compound NNC(=O)c1nc2ccccc2[nH]1
97.1

Which growth value belongs to COc1ccc(/C=C/C(=O)NCCO)cc1 ?
96.4

----------
System: NCI-H460 lung
experiment: NCI-60 one-dose screen, 48 h (100 = growth as untreated, 0 = no growth, -100 = all killed)
conditionInfo: 10 µM unless noted
The panel holds about 83,000 compounds, 20% with a hit somewhere; the sample as a whole holds those more often.
# growth per entry
Express your answer in %, writing the number without its unit.

Use the examples below as a reference point.
CC1(C)CC[C@]2(CO)CC[C@]3(C)C(=CC[C@@H]4[C@@]5(C)CC[C@H](NCO)C(C)(C)[C@@H]5CC[C@]43C)[C@@H]2C1 : -70.5
C#Cc1cc2c(N)c(C(=O)c3cc(OC)c(OC)c(OC)c3)[nH]c2cc1OC : 15.6
CCCCC/C(=C\c1ccccc1)C1OC(C)C(C)O1 (stereo unspecified) : 107
N=c1ccc2nc3c(cc(N)c4ccccc43)oc-2c1 : -77.3
Cn1cc(-c2csc(-c3c[nH]c4ccc(F)cc34)n2)c2cccnc21 : 11.4

Look at this molecule and give its reported growth. CC(=O)c1c(C)[nH]c(-c2nc3ccc(N4CCN(C)CC4)cc3[nH]2)c1-c1ccc2c(c1)OCCO2
62.7

Find the recorded growth belonging to C=C(C)[C@@H]1CC[C@]2(C=NCCCNCCCCNCCCN)CC[C@]3(C)[C@H](CC[C@@H]4[C@@]5(C)CCCNC(C)(C)[C@@H]5CC[C@]43C)[C@@H]12 and report it.
91.7

# query: growth of entry COc1cc(-c2cc3ncccc3c3nc(OCCN(C)C)c4cccnc4c23)cc(OC)c1OC
-50.8

----------
Tested on: SK-MEL-5 melanoma
experiment: NCI-60 one-dose screen, 48 h
conditionInfo: 10 µM unless noted
This is part of a sample that, as a whole, favours compounds with a hit. Of some 83,000 tested, about 20% had one in any assay. The source made the active and inactive calls. How the source made its calls: active means growth percent below 10; inactive means the rest.
Select the matching outcome among Yes for active, No for inactive

Worked cases, answers included:
Brc1ccc(Cn2nnnc2-c2ccn(-c3ccccc3)n2)cc1 : No
N=C(N)N=Nc1ccc(O)cc1 : No
CC1(c2ccccc2)OC1C(=O)O (centres undefined) : No
CCOc1ccc(NC(=O)c2ccoc2COc2ccccc2)cc1 : No
CC/C=C\C[C@H]1CC=C2C(=O)C=C[C@@H]2CC=CCCCC(=O)O[C@@H](CCCCC)CC=C2C(=O)C=C[C@@H]2CC=CCCCC(=O)O[C@@H](CCCCC)CC=C2C(=O)C=C[C@@H]2CC=CCCCC(=O)O[C@@H](CCCCC)CC=C2C(=O)C=C[C@@H]2CC=CCCCC(=O)O1 : No

What did the test return for CCCCC[C@H]1C/C=C2/C(=O)C(Cl)=C[C@@H]2C/C=C\CCCC(=O)O[C@@H](CCCCC)C/C=C2/C(=O)C(Cl)=C[C@@H]2C/C=C\CCCC(=O)O1 ?
Yes

Lab log entry: c1ccc2c(-c3nc(-c4c[nH]c5ncccc45)cs3)c[nH]c2c1 — outcome as called in the assay?
No

Record request — test call for Nc1nc(Br)nc2c1ncn2C1CC(O)C(CO)O1 (centres undefined)
No

What did the test return for c1ccc(CN2C(c3ccccc3)=Nc3ccccc3C2c2c[nH]c3ccccc23)cc1 (centres undefined) ?
No

Recorded values, source PubChem BioAssay (NCI).
